measurement.description: soluble on expression in E. coli; label from the status in PepcDB or PDB records
reported.endpoint: soluble on expression in E. coli

* MSLSQPSFGLSNTATQGTLGQQSLVQPQNQQPQLAAQQLQSQQLSRYPQLIQEQILKCKESWDSNSYKTSLRSFVYNKVNETDAILYTKPTNVSQEEWDKAIENKPSSDLIPIQVFGFEGLNNRNQIQVENVAQARVILNQILDKTKQLQQSHSFETSARIMKVQARNAQIEKRILKLGTQLAILKNRRLPLTISEEKMWGQFQELLKSSNDPAGLGKTNELWARLAVLRERAKTISEQLDSKLVIIGEGHHHHHH | soluble
* MPVTQEEIIAGIAEIIEEVTGIEPSEITPEKSFVDDLDIDSLSMVEIAVQTEDKYGVKIPDEDLAGLRTVGDVVAYIQKLEEENPEAAQALRAKIESENPDAVANVQARLEAESK | soluble
* MTVQTSKNPQVDIAEDNAFFPSEYSLSQYTSPVSDLDGVDYPKPYRGKHKILVIAADERYLPTDNGKLFSTGNHPIETLLPLYHLHAAGFEFEVATISGLMTKFEYWAMPHKDEKVMPFFEQHKSLFRNPKKLADVVASLNADSEYAAIFVPGGHGALIGLPESQDVAAALQWAIKNDRFVISLCHGPAAFLALRHGDNPLNGYSICAFPDAADKQTPEIGYMPGHLTWYFGEELKKMGMNIINDDITGRVHKDRKLLTGDSPFAANALGKLAAQEMLAAYAGLEHHHHHH | soluble
* MELEFKCSDVGVWKEALSSYDSRIESLNKPELVSLDQFYRIKLPCLLHDRDPNPYLTTSELSQLMKWKLSRGKWRPRLLDFVSSLDDSVVKSASEKAFKSLPDISKAVKELTVLKGVGAATASAVLAAYAPDIAPFMSDEAMEVALGNSKDYSLKQYLLFATKLQDKAKELKLKGEWDGPSDIERALWSCTVRAKSQPEKSSSGKKRKR | not soluble
* MGSDKIHHHHHHMITNTHLLISYIVYKNLYNNFNFKLDMAAFALGNIKPDFINKEIKCSHTLNESLDSLIEYSNKLVKYNNSIRKFSLALGIVCHYICDYFCIYHRDGNEKKGILEHLIYEVKLDSNFTMMFLKGKLNYFGCRDYGGSIKKIIFNIEKEYKLEEKDFKRDIKYALFAAIESSKFIVYSSKLYGN | not soluble
* MGSDKIHHHHHHMLKITFLGTNGWFDSNTGNTPSVLIEHRNYYIILDAGNGISKLRNCISSDKPVYLFLSHFHLDHISGLHTLPLNKFSKGLYIIVPKGGTKLINQFVNVPFTVPIKKLPFKTEIIEACNKLNFLPFKATFLPLVHSSYVLGIRLEIDSKTISYCTDTSYCFNAITLAKNADLLISECSMKPLGTDDASVHLNPELASKIAKEAGAKKLMLIHFDAAKYLTLDDRKKAELAAKTIFNNSYASYDDLELQV | not soluble
* MKGSRIELGDVTPHNIKQLKRLNQVIFPVSYNDKFYKDVLEVGELAKLAYFNDIAVGAVCCRVDHSQNQKRLYIMTLGCLAPYRRLGIGTKMLNHVLNICEKDGTFDNIYLHVQISNESAIDFYRKFGFEIIETKKNYYKRIEPADAHVLQKNLKVPSGQNADVQKTDN | soluble

---

measurement.description: soluble on expression in E. coli; label from the status in PepcDB or PDB records
reported.endpoint: soluble on expression in E. coli

* MAVREYQKKRRRERIFRAAMELFRNRGFQETTATEIAKAAHVSRGTFFNYYPYKEAVLLDYGSQLLAGLREEVRRLLAQGREPVEVLRHLFRVLAEGTAREKDLLLPMFYELLNPDPVRARAAFEALPLGDLIAEILKPLREQGVLRQDFSLERMGRTLADLYFLSALRWAAYTPGRDLAEELEKNLRLLLEGMLVREAPAPGGL | not soluble
* GPGSMIGLYRVVQFVHLTFFSTGHDLKRRYSKAGDWAVVTGGTEGIGRAVALDLANRGFNVCVISRTQSKLDEVVAEIEKCGTRGHSIAFDFATAGEAEYKMLFAKLDSLAVGLLVNNVGVNYTYANYFDEADVVDDLRIIKVNCEATTRMTKFFAPRMKARRAGGIVLLGSFSAVTPAPLLATYAGTKAFNVSFGDALFYELKKFGVDVLVVTPNLVVSRMTQGASTRAPKETFLTVGAAAMARQTLNQLGVVNRTAGHRNHIIIEAIARLLPESLRGEKMLAMHESIKKRAERKAKQ | not soluble

---

measurement.description: soluble on expression in E. coli; label from the status in PepcDB or PDB records
reported.endpoint: soluble on expression in E. coli

* NFDTNMFKLENYVKEKYSLESLEIIPNEFDDTPTILSERISQVAAGVLRNLIDDNMKIGFSWGKSLSNLVDLIHSKSVRNVHFYPLAGGPSHIHAKYHVNTLIYEMSRKFHGECTFMNATIVQENKLLADGILQSRYFENLKNSWKDLDIAVVGIGDFSNKGKHQWLDMLTEDDFKELTKVKTVGEICCRFFDSKGKEVYENLQERTIAISLEDLKNIPQSLAVAYGDTKVSSILSVLRANLVNHLITDKNTILKVLEEDGDL | soluble
* MSLSAVKIAVILPMTGGISAFGRMVWEGIQIAHEEKPTVLGEEVELVLLDTRSEKTEAANAAARAIDKEKVLAIIGEVASAHSLAIAPIAEENKVPMVTPASTNPLVTQGRKFVSRVCFIDPFQGAAMAVFAYKNLGAKRVVVFTDVEQDYSVGLSNFFINKFTELGGQVKRVFFRSGDQDFSAQLSVAMSFNPDAIYITGYYPEIALISRQARQLGFTGYILAGDGADAPELIEIGGEAVEGLLFTTHYHPKAASNPVAKKFVEVYKEKYGKEPAALNALGYDAYMVLLDAIERAGSFDREKIAEEIRKTRNFNGASGIINIDENGDEGHHHHHH | soluble
* MSFLGFTLVGKKIRWTEKSLANFKHRVRQLTGRSWGVSMEYRLEKLGQYLRGWFGYYGISQYYRPIPELDEWIRRRVRMCYWKQWRWARTKIRHLLDLGIPLKAAIQHGVSSLSYWRMARTPLEHHHHHH | soluble
* MKVLFVCSGGMSSAIVVNALKKEAEKKGVNMEVHAIGTSEVEEEVKNGWDVVMVAPQVRHRFDSVKKFAEEESIPCGIIPPQAYTPLGGPTLLKTVNDLIR | not soluble
* MENNTNQENSDALENVSFACIRPEILYFGTPVVLISTIDREGKVNLAPISSAWALGYSVVMGIGTESKTMENLRETGECTLNFPEGALWESVERLAPLTGKYPVPQDKADKFRFESNKFGVAGLTPCDSEVVKPPRVLECRLQMEACVKSVRRISEPDVQAGIVEVKVVRVHARNDLIIDGKYIDPKQWKPLIYSFRHYFTLGCDLGKTFRSKI | not soluble
* MGSDKIHHHHHHMMIKVFPKLRKQIWGSYRLGEMFGSNEKIGEVWLLSGHPLFITEAEGGLDLNEDMEKLIGKKLPRFPLLVKLISAEDWLSVQVHPNDDEAQELENEPWGKTEAWYFVEKGQIAIGEDPEKVKRALEDNSWDEALKKVEIEPGTFVFLPAGTVHALGPGGLLVEVQQASDLTYRVYDWGRGRELHIEKAFKVMKERKVEDLIVENFENFECEYFRIEKLERGKLEGFCAIVILENGVLDNRQVSPFETFIVPKGEKAELRATALVMRIGKFFEQWGDKK | not soluble
* MSLCRWAAYHGTPIFLEDVISRPGHSLIAQSAHAEECKTATNGDGFGVAWYDARPEPGLYRDVYPAWSDPNLRAVAHHVRSGLFLSHVRASTGSCISRNNCHPFAARRWCFMHNGQVGGFEAFRKQADMAIADEFYTYRKGSTDSEVLFLLALSEGLEHDPHGALARAIARLEGLSRAHGTTPHMRLSAAFSDGQTLYAARYSSDHIAPSVYYRYSHARQGWAVVSEPLETDEGDWTELRPGRMLTIGAEGAAERDFAPADLGRAAEGHHHHHH | soluble

---

measurement.description: soluble on expression in E. coli; label from the status in PepcDB or PDB records
reported.endpoint: soluble on expression in E. coli

* GTVKVYLPNKQRTVVTVRDGMSVYDSLDKALKVRGLNQDCCVVYRLIKGRKTVTAWDTAIAPLDGEELIVEVL | soluble
* MKTLPPILSNIIEKVTNTEPANVEDKLPMNILVLGSDEKQGGRSDTIMLVHIQKDFQPIVISIPRDTRVKVEGIKGYSKINAAYAYGKSKLAVKTVEDILGIKIDKYVVVNYEAVEKIVDLVGGVDVEVPFHLYYVDTTPGKELYINIPAGLQHLDGKKAVEFLRWRHNSNGKEYGRGGDLGRIEMQRKLLYALIEKMLKPQNIVRLPLIVQTVSKYTDHNFTKNEIMWFIQNVGKFNTQNIMMTILPGYPKYIDRVSYYILNEEKCRALIDDLNEPEVLKDSMKIKILSKSFDDKATQLKNDLESKGYSNVNLGRVSKLESSEVELKRVNRKYLELLKNDIDLSTYQVVYSPDYSDKFDVYIKVKLEHHHHHH | soluble
